Hello, the source for this data is paper PMC10397247, in case you need it.

Target: T1, APC4264-AA
T1 chain: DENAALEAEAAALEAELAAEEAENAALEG
Test: two-hybrid library CCmax;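 note: natural log of median RNA to DNA barcode read ratio; higher means stronger binding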
Details: mean of both orientations
quantity.measured: interaction score

1. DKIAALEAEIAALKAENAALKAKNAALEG [4H2143-AA]    -1.81
2. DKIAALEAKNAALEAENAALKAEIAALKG [4H2458-AA]    -1.79
3. DKLAAIKAENAALEAKAAALKAENAALEG [APC1434-AA]    -1.64
4. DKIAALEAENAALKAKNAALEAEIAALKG [4H2290-AA]    -1.33
5. DEIAALKAENAALKAEIAALKAENAALKG [4H716-AA]    -1.35
6. DELAAIEAEAAALEAKAAALKAEAAALEG [APC232-AA]    -1.93
7. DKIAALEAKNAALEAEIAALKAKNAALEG [4H2447-AA]    -1.6
8. DEAAALEAENAALEAELAAIEAKNAALKG [APC2405-AA]    -1.55
9. DEAAALEAEAAALEAKAAALKAKLAAEKG [APC2237-AA]    -1.65
